// data source = patent US20030186281A1

System: tet operator sequence
Assay Text: β-galactosidase activity of a tetracycline-regulated promoter in transformed E. coli with revTetR, in the presence and absence of anhydrotetracycline (atc)
Format: cell-based, Escherichia coli
Conditions Used: RevTetR isolate cultured in the absence of anhydrotetracycline (ATC)
Measured Endpoint: β-Galactosidase Activity, Cultured Without ATC

molecule="TetRrevAD3/10: revTetR(BD) N18Y G24G L51L D53Y A54V (protein, Modified tetracycline repressor, revTetR(BD) N18Y G24G L51L D53Y A54V) MSRLDKSKVINSALELLYEVGIEGLTTRKLAQKLGVEQPTLYWHVKNKRALLYVLAVEILARHHDYSLPAAGESWQSFLRNNAMSFRRALLRYRDGAKVHLGTRPDEKQYDTVETQLRFMTENGFSLRDGLYAISAVSHFTLGAVLEQQEHTAALTDRPAAPDENLPPLLREALQIMDSDDGEQAFLHGLESLIRGFEVQLTALLQIV" experimental_result=89.1669
molecule="TetRrevAtc4-47: revTetR(BD) L51L E58A I59N H63Y (protein, Modified tetracycline repressor, revTetR(BD) L51L E58A I59N H63Y) MSRLDKSKVINSALELLNEVGIEGLTTRKLAQKLGVEQPTLYWHVKNKRALLDALAVANLERYNDYSLPAAGESWQSFLRNNAMSFRRALLRYRDGAKVHLGTRPDEKQYDTVETQLRFMTENGFSLRDGLYAISAVSHFTLGAVLEQQEHTAALTDRPAAPDENLPPLLREALQIMDSDDGEQAFLHGLESLIRGFEVQLTALLQIV" experimental_result=83.987
